From: ChEMBL document CHEMBL1949601

biological target: Mu-type opioid receptor (Homo sapiens, UniProt P35372)
Sequence (P35372 whole entry): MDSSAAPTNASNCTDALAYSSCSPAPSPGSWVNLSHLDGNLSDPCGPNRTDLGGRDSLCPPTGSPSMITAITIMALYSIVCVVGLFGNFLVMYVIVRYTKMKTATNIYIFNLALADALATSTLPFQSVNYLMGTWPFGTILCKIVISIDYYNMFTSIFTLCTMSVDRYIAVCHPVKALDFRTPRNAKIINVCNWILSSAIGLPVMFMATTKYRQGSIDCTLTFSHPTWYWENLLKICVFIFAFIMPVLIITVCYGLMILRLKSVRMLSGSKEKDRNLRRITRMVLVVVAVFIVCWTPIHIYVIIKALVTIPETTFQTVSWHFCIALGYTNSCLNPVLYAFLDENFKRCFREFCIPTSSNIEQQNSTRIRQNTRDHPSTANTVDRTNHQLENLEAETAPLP
readout: IC50

## Task So what IC50 did CCS(=O)(=O)n1c2c(c3cc(C(=O)N4CCC(C)CC4)ccc31)CN(C1CCOCC1)CC2 get with Mu-type opioid receptor (Homo sapiens, UniProt P35372)?
## Result > 10 µM

---

For each entry below, report its pEC50 value.
target: Cannabinoid receptor 1 (Homo sapiens, UniProt P21554); assay: Agonist activity at human CB1 receptor expressed in HEK293 EBNA cells by [35S]GTPgamma binding assay; type: functional, cell-based
Sequence (P21554 whole entry): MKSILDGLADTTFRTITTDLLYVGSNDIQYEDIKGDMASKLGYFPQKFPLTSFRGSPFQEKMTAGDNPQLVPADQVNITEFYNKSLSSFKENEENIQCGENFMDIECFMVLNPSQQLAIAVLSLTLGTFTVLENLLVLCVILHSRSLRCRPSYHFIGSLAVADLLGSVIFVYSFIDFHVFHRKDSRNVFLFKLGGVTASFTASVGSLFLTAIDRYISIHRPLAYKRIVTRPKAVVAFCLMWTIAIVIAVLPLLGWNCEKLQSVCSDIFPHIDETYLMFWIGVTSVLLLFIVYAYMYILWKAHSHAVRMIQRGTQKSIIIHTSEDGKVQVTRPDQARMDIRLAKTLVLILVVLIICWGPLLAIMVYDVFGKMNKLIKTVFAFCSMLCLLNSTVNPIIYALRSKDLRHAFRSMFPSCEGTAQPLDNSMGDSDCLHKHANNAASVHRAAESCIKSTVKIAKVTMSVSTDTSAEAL
Give bare numbers, as −log10 of the molar value.

In the examples that follow, each entry is paired with its recorded pEC50.
compound	value measured
CC1CCN(C(=O)c2ccc3c(c2)c2c(n3S(C)(=O)=O)CCN(C3CCOCC3)C2)CC1	6.33
CCCS(=O)(=O)n1c2c(c3cc(C(=O)N4CCC(C)CC4)ccc31)CN(C1CCCC1)CC2	7.66
CCS(=O)(=O)n1c2c(c3cc(C(=O)N4CCC(C)CC4)ccc31)CN(C1CCOCC1)CC2	7.31
CC1CCN(C(=O)c2ccc3c(c2)c2c(n3S(=O)(=O)N(C)C)CCN(C3CCCC3)C2)CC1	7.59
CCS(=O)(=O)n1c2c(c3cc(C(=O)N4CCC(C)CC4)ccc31)CN(C1CCCC1)CC2	7.96

Return reported pEC50 values for all items listed beneath this line.
1. CC1CCN(C(=O)c2ccc3c(c2)c2c(n3S(=O)(=O)C(C)C)CCN(C3CCOCC3)C2)CC1
2. CC1CCN(C(=O)c2ccc3c(c2)c2c(n3C)CCN(C3CCCC3)C2)CC1
3. CC1CCN(C(=O)c2ccc3c(c2)c2c(n3S(=O)(=O)c3ccccc3)CCN(C3CCOCC3)C2)CC1

## Result
1. 6.82
2. 7.11
3. 7.23

## Task Please report the recorded pEC50 for CC1CCN(C(=O)c2ccc3[nH]c4c(c3c2)CN(C2CCCC2)CC4)CC1 .
## Result 5.37
